# Test system: CHEK2
# CONDITION SET: concentration: 1 μM, replicates: in singlicate; n = 1;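 note: KINOMEscan kinase panel screen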
Use 1% as the dividing line for %Inh, with the line itself on the yes side and lower values as no.

- MOLECULE: "N#Cc1ccc(Oc2ccc(Nc3ncnc4cc[nH]c34)cc2Cl)cc1"
  ASSIGNED CATEGORY: "yes"
- MOLECULE: "COc1ccc(-c2nc3n(c2-c2ccncc2)CCC3)cc1"
  ASSIGNED CATEGORY: "no"
- MOLECULE: "Cl.c1ccc(Cn2ncc3cc(Nc4ncnc5ccccc45)ccc32)cc1"
  ASSIGNED CATEGORY: "yes"
- MOLECULE: "Fc1cccc(COc2ccc(Nc3ncnc4cc[nH]c34)cc2Cl)c1"
  ASSIGNED CATEGORY: "yes"
- MOLECULE: "CN1CCC(n2cnc(-c3ccc(F)cc3)c2-c2ccnc(NC3CCNCC3)n2)CC1"
  ASSIGNED CATEGORY: "yes"
- MOLECULE: "CNc1nccc(-c2c(-c3ccc(F)cc3)ncn2CCCN2CCOCC2)n1"
  ASSIGNED CATEGORY: "yes"
- MOLECULE: "O=C(CCO)NCCn1ccc2ncnc(Nc3ccc(Oc4cccc(C(F)(F)F)c4)c(Cl)c3)c21"
  ASSIGNED CATEGORY: "no"
- MOLECULE: "Cc1cc(N2CCC(NS(=O)(=O)c3ccc(F)cc3)CC2)nc(Nc2cccc(C#N)c2)n1.O=C(O)C(F)(F)F"
  ASSIGNED CATEGORY: "no"
- MOLECULE: "Clc1cccc(-c2nc(Nc3ccncc3)c3ccccc3n2)c1"
  ASSIGNED CATEGORY: "no"
- MOLECULE: "Fc1cccc(COc2ccc(Nc3ncnc4nn5ccccc5c34)cc2Cl)c1"
  ASSIGNED CATEGORY: "yes"
- MOLECULE: "Nc1nc(-c2ccccn2)c(-c2ccnc3ccccc23)s1"
  ASSIGNED CATEGORY: "yes"
- MOLECULE: "CS(=O)(=O)CCNCc1nc(-c2ccc3ncnc(Nc4ccc(OCc5cccc(F)c5)c(Cl)c4)c3c2)cs1.Cl"
  ASSIGNED CATEGORY: "no"
- MOLECULE: "Nc1nc(-c2ccc3c(N)n[nH]c3c2)cc(N2CCC[C@@H](C(=O)Nc3ccccc3)C2)n1.O=C(O)C(F)(F)F.O=C(O)C(F)(F)F"
  ASSIGNED CATEGORY: "no"
- MOLECULE: "Cl.c1ccc(Cn2ccc3cc(Nc4ncnc5ccccc45)ccc32)cc1"
  ASSIGNED CATEGORY: "yes"
- MOLECULE: "COc1ccc(NC(=O)c2ccc(-c3cc(-c4nnc(C)o4)ccc3C)cc2)cc1"
  ASSIGNED CATEGORY: "no"
- MOLECULE: "O=c1cc(N2CCOCC2)nc2n(Cc3cccc(Cl)c3)ccn12"
  ASSIGNED CATEGORY: "no"
- MOLECULE: "Cn1cc(-c2ccc3c(c2)CCN3C(=O)Cc2cccc(C(F)(F)F)c2)c2c(N)ncnc21"
  ASSIGNED CATEGORY: "no"
- MOLECULE: "COc1ccc(NC(=O)Nc2ccc(C)c(-c3ccc(C(=O)Nc4ccncc4)cc3)c2)cc1"
  ASSIGNED CATEGORY: "no"
- MOLECULE: "Cc1ccc(O)cc1Nc1cc(C(F)(F)F)nc2ccc(-c3ccncc3)cc12"
  ASSIGNED CATEGORY: "no"
- MOLECULE: "O=C(NCCCN1CCCC1=O)c1cnc(NCc2cc(Cl)ccc2Cl)nc1NC1CCNCC1"
  ASSIGNED CATEGORY: "yes"
- MOLECULE: "CCc1nc(-c2cccc(N(C)S(=O)(=O)c3ccccc3)c2)c(-c2ccnc(Nc3ccc(N4CCN(C(C)=O)CC4)nc3)n2)s1"
  ASSIGNED CATEGORY: "no"
- MOLECULE: "Cl.Fc1ccccc1COc1ccc(Nc2ncnc3ccc(-c4nnc(C(F)(F)F)o4)cc23)cc1Cl"
  ASSIGNED CATEGORY: "yes"
- MOLECULE: "c1ccc(-c2ccc3c(-c4ccnc(Nc5ccc6c(c5)OCCO6)n4)cnn3n2)cc1"
  ASSIGNED CATEGORY: "no"
- MOLECULE: "Cc1ccc(C)c(NC(=O)NCCNc2ccnc(Nc3ccc(F)cc3)n2)c1"
  ASSIGNED CATEGORY: "no"
- MOLECULE: "COc1cc2ncnc(Nc3ccc(OCc4ccccc4Br)c(Cl)c3)c2cc1OC.Cl"
  ASSIGNED CATEGORY: "yes"
- MOLECULE: "O=C(Nc1n[nH]c2nc(-c3ccco3)c(Br)cc12)c1ccc(CN2CCCC2)cc1.O=C(O)[C@H](O)[C@@H](O)C(=O)O"
  ASSIGNED CATEGORY: "no"
- MOLECULE: "Nc1nc(-c2ccc3c(N)n[nH]c3c2)cc(N2CCCCC2)n1"
  ASSIGNED CATEGORY: "no"
- MOLECULE: "C[C@H]1CC[C@@H](C(=O)Nc2ccccc2)CN1c1cc(-c2ccc3c(N)n[nH]c3c2)nc(N)n1"
  ASSIGNED CATEGORY: "no"
- MOLECULE: "Nc1nc(-c2cccnc2)c(-c2ccnc3ccccc23)s1"
  ASSIGNED CATEGORY: "yes"
- MOLECULE: "Fc1ccc(-c2ncn(CCCNCc3ccccc3)c2-c2ccncc2)cc1"
  ASSIGNED CATEGORY: "no"
- MOLECULE: "Fc1cccc(COc2ccc(Nc3ncnc4sc(-c5ccc[nH]5)cc34)cc2Cl)c1"
  ASSIGNED CATEGORY: "yes"
- MOLECULE: "COc1ccc(Nc2nccc(N3CCC(NC(=O)Nc4ccc5c(c4)OCO5)C3)n2)cc1 (centres unmarked)"
  ASSIGNED CATEGORY: "no"

====

# Test system: NLK
# CONDITION SET: concentration: 1 μM, replicates: in singlicate; n = 1
Label key: True means %Inh under 10%; False means %Inh of 10% or more.

- SMILES RECORD: "CCC(CC)(CC)n1cnc2c(N)ncnc21"
  ASSIGNED CATEGORY: "False"
- SMILES RECORD: "CC(C)(C)c1ccc(-n2cnc3c(N)ncnc32)cc1"
  ASSIGNED CATEGORY: "False"
- SMILES RECORD: "Nc1nccc2scc(-c3ccc4c(c3)CCN4C(=O)Cc3cc(F)ccc3F)c12"
  ASSIGNED CATEGORY: "True"
- SMILES RECORD: "Cn1ccc2ncnc(Oc3ccc(NC(=O)Nc4cccnc4)c(Cl)c3)c21"
  ASSIGNED CATEGORY: "True"
- SMILES RECORD: "Cn1ccc2ncnc(Nc3ccc(Oc4cccc(Cl)c4)c(Cl)c3)c21"
  ASSIGNED CATEGORY: "True"
- SMILES RECORD: "CCc1nc(-c2cccc(C)c2)c(-c2ccnc(NC(=O)c3ccccc3)c2)s1"
  ASSIGNED CATEGORY: "False"
- SMILES RECORD: "Fc1cccc(COc2ccc(Nc3ncnc4cc[nH]c34)cc2Cl)c1"
  ASSIGNED CATEGORY: "True"
- SMILES RECORD: "Cl.Cn1ccc(-c2cccc(Nc3ccnc4cc(-c5nccs5)ccc34)c2)n1"
  ASSIGNED CATEGORY: "True"
- SMILES RECORD: "CN1CCC(n2cnc(-c3ccc(F)cc3)c2-c2ccnc(NC3CCNCC3)n2)CC1"
  ASSIGNED CATEGORY: "False"
- SMILES RECORD: "N#Cc1ccc(Oc2ccc(Nc3ncnc4cc[nH]c34)cc2Cl)cc1"
  ASSIGNED CATEGORY: "False"
- SMILES RECORD: "Fc1ccc(Nc2nccc(-c3c(-c4ccc(Cl)cc4)nn4ncccc34)n2)cc1F"
  ASSIGNED CATEGORY: "False"
- SMILES RECORD: "CC(C)N1CCC(n2cnc(-c3ccc(F)cc3)c2-c2ccnc(N)n2)CC1"
  ASSIGNED CATEGORY: "False"
- SMILES RECORD: "Cl.Cl.c1ccc(-c2cc3ccncc3cc2OC2CCNCC2)cc1"
  ASSIGNED CATEGORY: "False"
- SMILES RECORD: "Clc1cc(Nc2ncnc3cc[nH]c23)ccc1OCc1ccccn1"
  ASSIGNED CATEGORY: "True"
- SMILES RECORD: "CSc1nn2c(=O)cc(N3CCOCC3)nc2n1Cc1cccc(Cl)c1Cl"
  ASSIGNED CATEGORY: "False"
- SMILES RECORD: "Cc1ccc(C)c(NC(=O)NCCNc2ccnc(Nc3ccc(F)cc3)n2)c1"
  ASSIGNED CATEGORY: "True"
- SMILES RECORD: "Fc1ccc(-c2ncn(CCCNCc3ccccc3)c2-c2ccncc2)cc1"
  ASSIGNED CATEGORY: "False"
- SMILES RECORD: "CS(=O)(=O)CCNCc1ccc(-c2ccc3ncnc(Nc4ccc(OCc5ccccc5)c(Cl)c4)c3c2)o1.Cl"
  ASSIGNED CATEGORY: "False"
- SMILES RECORD: "Fc1cccc(COc2ccc(Nc3ncnc4sc(-c5ccc[nH]5)cc34)cc2Cl)c1"
  ASSIGNED CATEGORY: "False"
